# TARGET_UNDER_TEST: 5-hydroxytryptamine receptor 5A (Homo sapiens)
# ASSAY: activation of human 5-HT5A receptor – cell-based, luminescence, full-deck HTS, counter-screen for OPRM1-OPRD1 heterodimer agonist project, primary screen (AID 504692)
# RUN_PARAMETERS: HTR5A agonist assay, at 9.3 µM
About 2,000 (0.59%) of roughly 340,000 compounds were called active. No stated cut-off is given here; in the data, active means activation mostly above about 9.5% (no sharp cut-off); inactive means mostly below about 7.6%. Many of the other results were omitted from the sample, so actives are more common in it than they were.
// classify into active, inactive

Worked set:
CCCCCCCCCCOC(=O)Cn1c(COc2cccc(OC)c2)[n+](C)c2ccccc21: active
CCCCOc1ccc(NC(=O)CSCC(=O)OCC)cc1: inactive
Cn1c(CN2CCOCC2)nc2cc(NC(=O)c3ccc(Cl)cc3)ccc21: inactive
CCOC(=O)COn1c(=O)c(-c2ccc(OCC)cc2)[n+]([O-])c2ccccc21: inactive
O=C(NC1CC2CCCC(C1)N2C(=O)N1CCCCC1)C1CCCCC1 (stereo not given): inactive

Please state the recorded outcome for this compound: `O=C(COC(=O)c1ccccc1F)Nc1cc(S(=O)(=O)N2CCOCC2)ccc1N1CCCC1`
inactive

###

# TARGET_UNDER_TEST: 5-hydroxytryptamine receptor 5A (Homo sapiens) (UniProt P47898)
# Sequence (P47898 whole entry, looked up): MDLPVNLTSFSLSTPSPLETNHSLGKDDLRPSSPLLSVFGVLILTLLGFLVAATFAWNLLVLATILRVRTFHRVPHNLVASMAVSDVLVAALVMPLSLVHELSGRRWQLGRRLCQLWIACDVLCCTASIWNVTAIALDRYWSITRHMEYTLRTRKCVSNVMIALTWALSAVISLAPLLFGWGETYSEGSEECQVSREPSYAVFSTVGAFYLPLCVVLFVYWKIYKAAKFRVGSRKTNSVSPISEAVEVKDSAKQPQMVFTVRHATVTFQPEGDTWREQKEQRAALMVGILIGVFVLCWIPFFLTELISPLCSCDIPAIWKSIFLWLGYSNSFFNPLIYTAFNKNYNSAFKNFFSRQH
# ASSAY: activation of human 5-HT5A receptor – cell-based, luminescence, full-deck HTS, counter-screen for OPRM1-OPRD1 heterodimer agonist project, primary screen (AID 504692)
# RUN_PARAMETERS: HTR5A agonist assay, at 9.3 µM
Among all 340,000 compounds or so, about 2,000 (0.59%) were called active. No stated cut-off is given here; in the data, active means activation mostly above about 9.5% (no sharp cut-off); inactive means mostly below about 7.6%. For the sample, actives were picked, then their nearest neighbours and some compounds at random.
// classify into t = active, f = inactive

Worked set:
CN(CCOc1ccc(Br)cc1)CC(=O)Nc1cccc(S(=O)(=O)NC2=NCCC2)c1: t
COc1ccc(CCNC(=O)CC2SC(=Nc3cc(C)cc(C)c3)NC2=O)cc1OC (stereo unspecified): f
CC(C)(C)NS(=O)(=O)CC12CCC(CC1=O)C2(C)C (stereo unspecified): f
Cc1ccc(NC(=O)COc2ccc(/C=C3/NC(=O)NC3=O)cc2)cc1: f
COc1cc2c(-c3ccc4c(c3)OCO4)c(-c3ccsc3)oc(=O)c2cc1OC: t
Cc1ccc(C(=O)Nc2ccc3c(c2)OCCO3)cc1S(=O)(=O)N1CCOCC1: f
COc1ccc(N(C(=O)c2cccnc2)S(=O)(=O)c2ccc(OC)c(OC)c2)cc1: f
CN(CCC(=O)Nc1cc(S(=O)(=O)N(C)C)ccc1Cl)CC(=O)Nc1ccc(F)cc1: t
CC(=O)Nc1ccc(C(=O)Nc2cccc(S(=O)(=O)NC3=NCCC3)c2)cc1: f
CCn1c2c(c3ccc(OC)cc31)CCCC2=O: f

Please state the recorded outcome for this compound: CC1C(=O)N(Cc2ccccc2)c2ccccc2N1C(=O)c1ccccc1 (stereo unspecified)
f

Please state the recorded outcome for this compound: Cc1ccc(/C=N/NC(=O)C(NC(=O)c2ccccc2)c2n[nH]c(=O)c3ccccc23)cc1 (stereo unspecified)
f

Please state the recorded outcome for this compound: CC1(C)C2CCC1(CS(=O)(=O)NCCc1c[nH]c3ccccc13)C(=O)C2 (stereo unspecified)
t

Please state the recorded outcome for this compound: `COc1ccc(/C=N/NC(=O)c2ccncc2)cc1CN1CCCc2ccccc21`
f

Please state the recorded outcome for this compound: `C=CCSc1nnc2c(n1)-c1cccc3cccc-2c13`
f

Please state the recorded outcome for this compound: `COc1ccc(-c2ocnc2C(=O)Nc2ccc3c(c2)CCC3)cc1`
t
